Target: T1, VEGFR-3-Fc (UniProt P35916 25-328)
T1 construct: domain: first three Ig domains; conditioned supernatant of 293T cells; also called VEGFR-3-Fc fusion protein; not shown: Fc fragment of the pIg vector
T1 sequence (looked up): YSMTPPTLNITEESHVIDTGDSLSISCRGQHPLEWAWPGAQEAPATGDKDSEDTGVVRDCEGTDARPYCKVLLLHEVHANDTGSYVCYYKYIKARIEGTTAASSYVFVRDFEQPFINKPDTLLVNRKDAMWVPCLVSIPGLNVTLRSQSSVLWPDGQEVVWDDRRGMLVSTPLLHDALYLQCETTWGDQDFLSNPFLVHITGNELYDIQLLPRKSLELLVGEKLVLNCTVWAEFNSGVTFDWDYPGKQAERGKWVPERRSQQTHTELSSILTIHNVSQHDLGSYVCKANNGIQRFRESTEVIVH
Test: receptor-Fc IP

binder	binding result
12-7 (ligand, also called super-VEGF) GQNHHEVVKFMDVYQRSYCHPIETLVDIFQEFGVATNTFFKPPCVSVYRCGGCCNSEGLQCVPTEESNITMQIMRIKPHQGQHIGEMSFANHTSCRCMSKLDLVFEQKLISEEDLNSAVDHHHHHH	binds

Every entry's value here was drawn from patent US20080058263A1.
